Tested on: parental HEK cells
EXPERIMENT: HEK parental Agonist Counterscreen Assay (non-transfected cells)
Type: cell-based
RECORDED CONDITIONS: HEK Agonist Activity section
Short version: Lipophilic Efficiency (logP) at least 2 is Met, less is Not met.

Incoming: Is Lipophilic Efficiency (logP) at least 2? Consider CC(C)(C)c1cn2cccc(OCc3ccc(Cl)c(Cl)c3)c2n1 [SR-07000004609]
Outgoing: Not met

Incoming: Hello, I need to know if COc1ccc(CCN2CC3=C(C2=O)C(c2ccc(F)c(F)c2)NC(=O)N3)cc1 (stereo not drawn) [SR-01000335002] has measured Lipophilic Efficiency (logP) not below 2. Thanks!
Outgoing: Met

Incoming: In plain terms: is recorded Lipophilic Efficiency (logP) at least 2 for CC1(c2ccc3c(c2)OCO3)NC(=O)N(CC(=O)NC2CCCC2)C1=O (stereo not drawn) [SR-01000065547] ?
Outgoing: Met

Incoming: Please check the record COc1ccc(NC(=O)Cn2ncc3c2-c2ccccc2OC3)cc1Cl [SR-01000135070] and state if its Lipophilic Efficiency (logP) is at or above 2.
Outgoing: Not met

Incoming: Kindly determine if Lipophilic Efficiency (logP) recorded for Cc1ccc2c(CC(=O)NNC(=O)CC34CC5CC(CC(C5)C3)C4)coc2c1 [SR-01000054849] is above or exactly 2.
Outgoing: Not met

Incoming: Quick check, Lipophilic Efficiency (logP) >= 2? CCSc1nc2sccn2c(=O)c1C(=O)NC(C)c1ccccc1 (stereo not drawn) [SR-01000378352]
Outgoing: Not met

Incoming: Entry Cc1ccc2c(c1)-c1c(cnn1CC(=O)Nc1ccc(F)cc1)CO2 [SR-01000136273] : is its Lipophilic Efficiency (logP) no less than 2?
Outgoing: Not met

Incoming: Check this compound for Lipophilic Efficiency (logP) at or above 2: CCn1c(=O)c([N+](=O)[O-])c(NCCc2ccc(OC)cc2)c2ccccc21 [SR-01000918303]
Outgoing: Met

Incoming: Record Cc1ccc(CN2CCN(CC(=O)N3CC(C)CC(C)C3)C2=O)cc1 (stereo not drawn) [SR-01000150389] ; criterion: Lipophilic Efficiency (logP) no lower than 2. Met?
Outgoing: Met

---

TEST SYSTEM: GPR139 (Homo sapiens, UniProt Q6DWJ6)
Sequence (Q6DWJ6 whole entry): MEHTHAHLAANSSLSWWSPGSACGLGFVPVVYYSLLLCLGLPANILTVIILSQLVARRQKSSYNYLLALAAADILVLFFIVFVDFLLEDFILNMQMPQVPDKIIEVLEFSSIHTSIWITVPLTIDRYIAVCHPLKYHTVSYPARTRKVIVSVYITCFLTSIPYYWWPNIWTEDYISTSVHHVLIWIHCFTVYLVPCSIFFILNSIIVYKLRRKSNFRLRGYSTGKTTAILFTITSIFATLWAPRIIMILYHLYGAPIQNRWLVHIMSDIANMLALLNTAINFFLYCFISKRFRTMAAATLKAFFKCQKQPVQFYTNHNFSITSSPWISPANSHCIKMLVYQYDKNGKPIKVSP
EXPERIMENT: GPR139 Agonist titration / agonist counterscreen assay (calcium detection, HEK-GPR139 cells)
Assay type: cell-based
Design: expressed in transfected cells; host or cells: HEK Aequorin cells, Maxcyte transient transfection
RECORDED CONDITIONS: GPR139 Agonist Activity; activity relative to known control
MEASUREMENT LABEL: Averaged Max % Response (±St. Dev.)
// return the numeric value with its unit appended

Worked cases, answers included:
Incoming: I'd like to know its Averaged Max % Response (±St. Dev.). The compound in question is CCC1CCCCN1C(=O)CN1C(=O)NC(C)(c2ccc3ccccc3c2)C1=O (centres unmarked) [SR-01000048417]
Outgoing: 111.02 ± 13.88%

Incoming: Form field: reported Averaged Max % Response (±St. Dev.) of Cc1ccccc1CS(=O)(=O)CCC(=O)NC(C)c1ccccc1 (centres unmarked) [SR-01000145393]
Outgoing: 97.82 ± 12.25%

Incoming: GET /values?readout=Averaged Max % Response (±St. Dev.)&item= CC(C)C1CC(=O)[C@@H]2C[C@@H](CC2C(=O)CC2CCOc3ccccc3C2)C2C=CC(=C2)CCC(=O)[C@@H](Cc2ccccc2)NC1=O (some centres unmarked) [SR-05000709044]
Outgoing: 99.08 ± 8.57%

Incoming: Field request: Averaged Max % Response (±St. Dev.) | item: C=C(CCc1cccc(CC)c1)C(C)C1CCC(Cc2ccccc2C)C1=C (centres unmarked) [SR-01000095280]
Outgoing: 122.65 ± 11.25%

Incoming: Using the record for Cc1cccnc1NC(=O)Cn1ncc2c1-c1ccccc1OC2 [SR-01000152365] , report its Averaged Max % Response (±St. Dev.).
Outgoing: 96.01 ± 17.34%

New cases:
Incoming: May I ask what Averaged Max % Response (±St. Dev.) has been recorded for O=C(Nc1ccc(-c2c[nH]cn2)cc1)C1COc2ccc(F)cc2C1 (centres unmarked) [SR-00000004710] ?
Outgoing: 89.55 ± 3.66%

Incoming: Look up Averaged Max % Response (±St. Dev.) for this compound: COc1cc(OC)cc(C(=O)NNC(=O)CCc2ccccc2)c1 [SR-01000359572]
Outgoing: 100.90 ± 10.01%

Incoming: Looking for the measured Averaged Max % Response (±St. Dev.) of CN(CCC(=O)NCC1Cc2cccc(-c3ccccn3)c2O1)C1CCS(=O)(=O)C1 (centres unmarked) [SR-01000193031] , can you help?
Outgoing: 95.01 ± 4.20%
